tested on: MCF7; test: Cytotoxicity against human MCF7 cells by SRB method; type: functional, cell-based
Reported IC50 values for the following compounds.
ENDPOINT NAME: IC50

COMPOUND	ENDPOINT NAME	REPORTED
CN1C(=O)[C@]23SSS[C@@]1(C)C(=O)N2[C@H]1Nc2ccccc2[C@]1(c1c[nH]c2ccccc12)[C@@H]3O	IC50	650 nM
C[C@@H]1NC(=O)[C@H](Cc2c[nH]c3ccccc23)NC1=O	IC50	> 100000 nM
O=C1N[C@@H](Cc2c[nH]c3ccccc23)C(=O)N[C@H]1CO	IC50	> 100000 nM
CN1C(=O)[C@@]23C[C@@]4(c5c[nH]c6ccccc56)c5ccccc5N[C@@H]4N2C(=O)[C@]1(CO)SS3 [LUTEOALBUSIN A]	IC50	230 nM
CN1C(=O)[C@]23SSS[C@]1(CO)C(=O)N2[C@H]1Nc2ccccc2[C@@]1(c1c[nH]c2ccccc12)[C@@H]3O	IC50	910 nM
C[C@H]1C(=O)N[C@@H](Cc2c[nH]c3ccccc23)C(=O)N1C	IC50	> 100000 nM
CN1C(=O)[C@@]23C[C@@]4(c5c[nH]c6ccccc56)c5ccccc5N[C@@H]4N2C(=O)[C@]1(CO)SSS3 [LUTEOALBUSIN B]	IC50	250 nM
CS[C@]1(CO)NC(=O)[C@](Cc2c[nH]c3ccccc23)(SC)NC1=O [CHETOSEMINUDIN C]	IC50	> 100000 nM
CN1C(=O)[C@]23SS[C@@]1(C)C(=O)N2[C@H]1Nc2ccccc2[C@]1(c1c[nH]c2ccccc12)[C@@H]3O	IC50	230 nM
CS[C@]1(Cc2c[nH]c3ccccc23)NC(=O)[C@](CO)(SC)N(C)C1=O [CHETOSEMINUDIN B]	IC50	> 100000 nM

Data origin: ChEMBL document CHEMBL2203213
